Test system: HepG2
Assay: Cytotoxicity against human HepG2 cells after 48 hrs by MTT assay
Type: functional, cell-based
Details: HepG2, 48 h
Value Kind: IC50 (µM)
I only need the number, in µM, no unit after it.

Reference set (3 entries):
Smiles	IC50 (µM)
COc1ccc(C(=O)O[C@H]2c3cc4c(cc3[C@@H](c3cc(OC)c(OC)c(OC)c3)[C@H]3C(=O)OC[C@@H]32)OCO4)c([N+](=O)[O-])c1	26.5
COc1ccc(/C(=C\c2ccc(OC)c(OCc3ccccc3)c2)C(=O)O[C@H]2c3cc4c(cc3[C@@H](c3cc(OC)c(OC)c(OC)c3)[C@H]3C(=O)OC[C@@H]32)OCO4)cc1OC	22.9
COc1cc([C@@H]2c3cc4c(cc3[C@H](OC(=O)c3ccccc3Cl)[C@H]3COC(=O)[C@H]23)OCO4)cc(OC)c1OC	24.4

The reported value for `CC#CC(=O)O[C@H]1c2cc3c(cc2[C@@H](c2cc(OC)c(OC)c(OC)c2)[C@H]2C(=O)OC[C@@H]21)OCO3` in terms of IC50 is 1.47

The reported value for `COc1ccc(/C(=C\c2ccc(OCc3ccccc3)c(OC)c2)C(=O)O[C@H]2c3cc4c(cc3[C@@H](c3cc(OC)c(OC)c(OC)c3)[C@H]3C(=O)OC[C@@H]32)OCO4)cc1OC` in terms of IC50 is 28

---

Molecular target: Tubulin (Homo sapiens) (UniProt P68371+Q9H4B7+P0DPH7+P68366+Q13509+Q71U36+P04350+Q3ZCM7+P07437+P68363+Q9BQE3+Q6PEY2+Q13885+Q9BVA1+Q9BUF5)
Assay: Inhibition of tubulin polymerization (unknown origin) at 5 uM measured every min for 1 hr by fluorescence-based assay
Type: protein-complex assay
Design: scale not given: the % may be the effect or the level left
Value Kind: Activity

Smiles	Activity
COc1ccc(/C(=C\c2ccc(OC(C)=O)c(OC)c2)C(=O)O[C@H]2c3cc4c(cc3[C@@H](c3cc(OC)c(OC)c(OC)c3)[C@H]3C(=O)OC[C@@H]32)OCO4)cc1OC	51.2%
CC#CC(=O)O[C@H]1c2cc3c(cc2[C@@H](c2cc(OC)c(OC)c(OC)c2)[C@H]2C(=O)OC[C@@H]21)OCO3	62.1%
COc1ccc(/C=C\c2cc(OC)c(OC)c(OC)c2)cc1O	69.4%

Field: next compound
The reported value for `COc1cc([C@@H]2c3cc4c(cc3[C@H](OC(=O)C#Cc3ccccc3)[C@H]3COC(=O)[C@H]23)OCO4)cc(OC)c1OC` in terms of Activity is 53.8%

---

Target: Tubulin (Homo sapiens) (UniProt P68371+Q9H4B7+P0DPH7+P68366+Q13509+Q71U36+P04350+Q3ZCM7+P07437+P68363+Q9BQE3+Q6PEY2+Q13885+Q9BVA1+Q9BUF5)
Experiment: Inhibition of tubulin polymerization (unknown origin) at 5 uM measured every min for 1 hr by fluorescence-based assay
Assay type: protein-complex assay
Design: scale not given: the % may be the effect or the level left
Measured Activity values are reported for all entries that follow.
I only need the number, in %, no unit after it.

Reference set (2 entries):
Smiles	Unit String	Activity
COc1cc([C@@H]2c3cc4c(cc3[C@H](OC(=O)c3ccc([N+](=O)[O-])cc3)[C@H]3COC(=O)[C@H]23)OCO4)cc(OC)c1OC	%	64
COc1ccc(/C=C(/C(=O)O[C@H]2c3cc4c(cc3[C@@H](c3cc(OC)c(OC)c(OC)c3)[C@H]3C(=O)OC[C@@H]32)OCO4)c2ccc(OC)c(OC)c2)cc1OC	%	46.8

The reported value for `COc1cc([C@@H]2c3cc4c(cc3[C@H](O)[C@H]3COC(=O)[C@H]23)OCO4)cc(OC)c1OC` in terms of Activity is 66.6
